# Assay System: T1, Tks4 SH3_(1)–SH3_(2) tandem SH3 fragment (residues 155–279) (human, UniProt A1X283 155-279, NT-647 amine-reactive dye (in the MST only))
# T1 construct: human Tks4 (SH3PXD2B), residues 155-279: first and second SH3 domains with their linker; The vector has a TEV site after the His-tag; Unlabelled in the tryptophan fluorescence titrations; source: E. coli Rosetta pLysS, purified
# T1 sequence (looked up): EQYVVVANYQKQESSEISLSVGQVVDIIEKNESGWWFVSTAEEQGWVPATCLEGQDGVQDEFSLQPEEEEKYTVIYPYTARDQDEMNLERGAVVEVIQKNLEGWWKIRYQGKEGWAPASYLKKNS
# Assay Procedure: other fluorescence titration; intrinsic tryptophan fluorescence (excitation 295 nm, followed at 340 nm); SH3_(1)–SH3_(2) constant at 5 µM, PRR fragments 1.8–100 µM; PBS, 0.5 mM TCEP, 0.05% TWEEN 20; 1:1 binding model
# Run Conditions: both partners purified
Readout Kind: pKd
// pKd is dimensionless: -log10 of concentration (M)

Prompt: If you can, please state the reported pKd value of GSHMGDAKQRSPKMRQRPPPRRDMTIPRGLNLPKPPIPPQVE (domain or fragment, human, four N-terminal residues that are cloning artifacts; human Tks4 (SH3PXD2B), residues 333-370: proline-rich region with the PTAM (PPPRR) and the PKPPIPP motif; also called wild type PRRL; not shown: His-tag, N-terminal, cleaved) [Tks4 PRRL fragment (residues 333–370)] .
Response: 4.62
